- tested on: human recombinant PDE9 enzyme (Homo sapiens, UniProt O76083)
- Construct: made in house; host or cells: SF-9 insect cells
- Sequence (O76083 whole entry): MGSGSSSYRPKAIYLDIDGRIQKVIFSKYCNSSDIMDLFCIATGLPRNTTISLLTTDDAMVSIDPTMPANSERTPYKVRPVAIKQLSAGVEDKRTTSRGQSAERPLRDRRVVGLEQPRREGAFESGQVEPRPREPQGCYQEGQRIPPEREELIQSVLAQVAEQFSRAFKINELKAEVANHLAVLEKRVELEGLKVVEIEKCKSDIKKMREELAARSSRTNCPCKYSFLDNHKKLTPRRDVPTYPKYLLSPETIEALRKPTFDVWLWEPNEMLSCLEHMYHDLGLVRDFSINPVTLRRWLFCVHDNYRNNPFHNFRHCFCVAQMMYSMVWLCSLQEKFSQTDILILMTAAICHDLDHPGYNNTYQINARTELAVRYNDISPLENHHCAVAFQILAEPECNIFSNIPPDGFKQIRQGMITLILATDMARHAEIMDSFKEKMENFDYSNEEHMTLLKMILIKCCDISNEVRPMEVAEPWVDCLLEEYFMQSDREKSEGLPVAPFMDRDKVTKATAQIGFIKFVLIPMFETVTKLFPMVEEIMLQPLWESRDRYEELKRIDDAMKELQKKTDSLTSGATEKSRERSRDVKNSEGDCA
- test: Phosphodiesterase 9 (PDE9) inhibitory activity, Scintillation Proximity (SPA) assay
- Format: biochemical
- condition context: human recombinant PDE9 from SF-9 cells; 50 nM [3H]cGMP; room temperature, 30 min; additional compounds Ex. 115-228; read-out: G5678A (U):IC50
quantity name: IC50 (nM)
One number for each entry, in nM.

{"columns": ["compound", "quantity name", "quantitative result"],
 "data": [
  ["C[C@@H]1CN(Cc2ccc(C(F)(F)F)cc2)C[C@H]1c1nc2c(cnn2C2CCCC2)c(=O)[nH]1 (racemic) [Example 225]", "IC50", 34.9],
  ["C[C@@H]1CN(CC2CCCC2)C[C@H]1c1nc2c(cnn2C2CCCC2)c(=O)[nH]1 (racemic) [Example 205]", "IC50", 286]
]}

For every item below, please supply its IC50.
1. C[C@@H]1CN(Cc2cccc3ccccc23)C[C@H]1c1nc2c(cnn2C2CCCC2)c(=O)[nH]1 (racemic) [Example 142]
2. COc1ccccc1CN1C[C@@H](C)[C@H](c2nc3c(cnn3C3CCCC3)c(=O)[nH]2)C1 (racemic) [Example 211]
3. C[C@@H]1CN(Cc2cccc(F)c2)C[C@H]1c1nc2c(cnn2C2CCCC2)c(=O)[nH]1 (racemic) [Example 215]
4. C[C@@H]1CN(Cc2nc3cnccc3n2C)C[C@H]1c1nc2c(cnn2C2CCCC2)c(=O)[nH]1 (racemic) [Example 226]
5. C[C@@H]1CN(Cc2c(Cl)cccc2Cl)C[C@H]1c1nc2c(cnn2C2CCCC2)c(=O)[nH]1 (racemic) [Example 192]

1. 47.5
2. 39.8
3. 11.5
4. 3.78
5. 236

###

Field: pIC50. Provide a value for each of the molecules that follow.
- tested on: human recombinant PDE9 enzyme (Homo sapiens)
- Construct: made in house; host or cells: SF-9 insect cells
- test: Phosphodiesterase 9 (PDE9) inhibitory activity, Scintillation Proximity (SPA) assay
- Assay type: biochemical
- condition context: human recombinant PDE9 from SF-9 cells; 50 nM [3H]cGMP; room temperature, 30 min; additional compounds Ex. 115-228; read-out: G5678A (U):IC50
Numbers only, as −log10 of the molar value.

For every item below, please supply its pIC50.
1. C[C@@H]1CN(Cc2cccc3c2OCC3)C[C@H]1c1nc2c(cnn2C2CCCC2)c(=O)[nH]1 (racemic)
2. C[C@@H]1CN(Cc2nc3c(s2)CCCC3)C[C@H]1c1nc2c(cnn2C2CCCC2)c(=O)[nH]1 (racemic)
3. C[C@@H]1CN(Cc2cccc(C#N)c2)C[C@H]1c1nc2c(cnn2C2CCCC2)c(=O)[nH]1 (racemic)
4. Cc1ccccc1CN1C[C@@H](C)[C@H](c2nc3c(cnn3C3CCCC3)c(=O)[nH]2)C1 (relative stereo)

7.05
7.26
7.55
7.08

For every item below, please supply its pIC50.
1. C[C@@H]1CN(Cc2ccc(Cl)c(Cl)c2)C[C@H]1c1nc2c(cnn2C2CCCC2)c(=O)[nH]1 (racemic)
2. Cc1ccc(CN2C[C@@H](C)[C@H](c3nc4c(cnn4C4CCCC4)c(=O)[nH]3)C2)cc1F (racemic) [Example 130]
3. Cc1cc(CN2C[C@@H](C)[C@H](c3nc4c(cnn4C4CCCC4)c(=O)[nH]3)C2)ccc1F (racemic)

1. 7.55
2. 7.22
3. 7.05

# credit: patent US7964607B2
